System: Euschistus heros (Neotropical Brown Stink Bug)
test_method_notes: Euschistus heros (Neotropical Brown Stink Bug): Feeding/contact activity
Assay type: in vivo
reported_conditions: 120 h, application rate of 200 ppm, N2 nymphs on soybean leaves, assessed 5 days after infestation, read-out: control (mortality)
Some compounds, each annotated with its measured mortality at 200 ppm.

- CCN(C(=O)c1cc(-c2cnn(-c3c(Br)cc(C(F)(C(F)(F)F)C(F)(F)F)n3C)c2)ccc1Cl)C1CC1: ≥ 80%
- N#CCn1c(C(F)(C(F)(F)F)C(F)(F)F)cc(Br)c1-n1cc(-c2ccc(Cl)c(C(=O)NC3(C#N)CC3)c2)cn1: ≥ 80%
- Cn1c(-c2cc(-c3ccc(Cl)c(C(=O)NC4(C#N)CC4)c3)on2)ccc1C(F)(C(F)(F)F)C(F)(F)F: ≥ 80%
- N#CC1(NC(=O)c2cc(-c3cnn(-c4c(Br)cc(C(F)(C(F)(F)F)C(F)(F)F)n4CF)c3)ccc2Cl)CC1: ≥ 80%
- CN(C(=O)c1cc(-c2cnn(-c3c(Br)cc(C(F)(C(F)(F)F)C(F)(F)F)n3C)c2)ccc1Cl)C1(C#N)CC1: ≥ 80%

State its mortality at 200 ppm: "Cn1c(C(F)(C(F)(F)F)C(F)(F)F)cc(Br)c1-c1cc(-c2ccc(Cl)c(C(=O)NC3(C#N)CC3)c2)on1"
≥ 80%

State its mortality at 200 ppm: "Cn1c(C(F)(C(F)(F)F)C(F)(F)F)cc(Br)c1-n1cc(-c2ccc(Cl)c(C(=O)NC3CC3)c2)cn1"
≥ 80%

State its mortality at 200 ppm: "Cn1c(C(F)(C(F)(F)F)C(F)(F)F)cc(I)c1-n1cc(-c2ccc(Cl)c(C(=O)NC3(C#N)CC3)c2)cn1"
≥ 80%

State its mortality at 200 ppm: "COCn1c(C(F)(C(F)(F)F)C(F)(F)F)cc(Br)c1-n1cc(-c2ccc(Cl)c(C(=O)NC3(C#N)CC3)c2)cn1"
≥ 80%
